target: UniProtKB Q06124; experiment: Phosphatase assays (IC50), DiFMUP substrate; settings: SHP2 0.5 nM activated with dPEG8 peptide, DiFMUP 12 μM, 30 min
recorded endpoint: IC50 (nM)
The figure you give is taken to be in nM; do not add the unit.

molecule_smiles=Nc1nc(N2CCC3(CC2)Cc2ccccc2[C@H]3N)cnc1Sc1ccnc(N)c1Cl recorded_result=4

Look up IC50 for this compound: Nc1nc(N2CCC3(CC2)c2ccccc2C[C@H]3N)cnc1Sc1ccnc(N)c1Cl
8

====

test system: MV-4-11; test: Cell proliferation assay (MTS/PMS); format: cell-based; details: Homo sapiens, MV4-11
Measured IC50 values are reported for all entries that follow.
A number alone suffices; assume nM.

molecule_smiles=Nc1nc(N2CCC3(CC2)Cc2ccccc2[C@H]3N)cnc1Sc1ccnc(N)c1Cl recorded_result=2.7

Query compound follows.
Query (compound): COc1ccc2c(c1)[C@@H](N)C1(CCN(c3cnc(Sc4ccnc(N)c4Cl)c(N)n3)CC1)C2 ; field requested: IC50
4.8

====

Below, each entry is listed alongside its reported inhibition at 0.1 µM.
target: SHP2 (Homo sapiens, UniProt Q06124); experiment: biochemical; conditions: read-out: SHP2 inhibition (%)@0.1 μM
Answer format: numeric, % implied, no suffix.

Record excerpt, results attached:
molecule_smiles=CN(C)C(=O)c1ccc2c(c1)[C@@H](N)C1(CCN(c3cnc(Sc4ccnc(N)c4Cl)c(N)n3)CC1)C2 units_label=% recorded_result=79
molecule_smiles=Nc1nc(N2CCC3(CC2)Cc2ncccc2[C@H]3N)cnc1Sc1cc(F)ncc1Cl units_label=% recorded_result=81

Let us examine a further case.
For Nc1nc(N2CCC3(CC2)Cc2ncccc2[C@H]3N)cnc1Sc1c(Cl)cncc1Cl , what is its reported inhibition at 0.1 µM?
82

====

As shown below, each of these molecules has a reported inhibition at 0.1 µM value.
Biological target: SHP2 (Homo sapiens, UniProt Q06124)
Sequence (Q06124 1-593): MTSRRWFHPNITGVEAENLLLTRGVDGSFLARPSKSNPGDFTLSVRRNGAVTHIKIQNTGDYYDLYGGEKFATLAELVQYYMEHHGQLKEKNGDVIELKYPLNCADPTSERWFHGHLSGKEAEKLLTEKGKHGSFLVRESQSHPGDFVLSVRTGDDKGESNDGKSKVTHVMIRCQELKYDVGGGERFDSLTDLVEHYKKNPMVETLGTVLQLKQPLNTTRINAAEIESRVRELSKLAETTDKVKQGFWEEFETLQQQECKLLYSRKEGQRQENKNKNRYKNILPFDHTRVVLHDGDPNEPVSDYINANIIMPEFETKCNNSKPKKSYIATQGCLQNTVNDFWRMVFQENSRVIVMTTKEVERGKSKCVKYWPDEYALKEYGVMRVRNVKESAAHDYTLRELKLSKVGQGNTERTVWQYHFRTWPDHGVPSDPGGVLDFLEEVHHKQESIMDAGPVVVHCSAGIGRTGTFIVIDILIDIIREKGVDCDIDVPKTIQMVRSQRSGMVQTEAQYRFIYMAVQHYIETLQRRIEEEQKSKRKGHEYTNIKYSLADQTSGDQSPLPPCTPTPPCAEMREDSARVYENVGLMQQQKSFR
Assay: biochemical
Conditions: read-out: SHP2 inhibition (%)@0.1 μM
Give just the numeric value; % need not be written.

molecule="Nc1nc(N2CCC3(CC2)Cc2cc(F)c(F)cc2[C@H]3N)cnc1Sc1ccnc(N)c1Cl [Example 39]" recorded_result=67
molecule="Nc1nc(N2CCC3(CC2)Cc2nc(Cl)sc2[C@H]3N)cnc1Sc1ccnc(N)c1Cl [Example 69]" recorded_result=89
molecule="CP(C)(=O)c1cc2c(cc1F)CC1(CCN(c3cnc(Sc4ccnc(N)c4Cl)c(N)n3)CC1)[C@@H]2N [Example 41]" recorded_result=69
molecule="N[C@@H]1c2cccnc2CC12CCN(c1cnc(Sc3cnccc3Cl)cn1)CC2 [Example 106]" recorded_result=82

Which inhibition at 0.1 µM reading was recorded for the molecule COc1nccc(Sc2ncc(N3CCC4(CC3)Cc3ccccc3[C@H]4N)nc2N)c1Cl [Example 54] ?
69

Can you look up the measured inhibition at 0.1 µM of N#Cc1ncccc1Sc1cnc(N2CCC3(CC2)Cc2ncccc2[C@H]3N)cn1 [Example 117] for me?
81

I'd like to know its inhibition at 0.1 µM. The molecule in question is Nc1nc(N2CCC3(CC2)Cc2ccccc2[C@H]3N)cnc1Sc1ccnc(Cl)c1Cl [Example 66]
72

Endpoint output: inhibition at 0.1 µM of N#Cc1cccc2c1CC1(CCN(c3cnc(Sc4ccnc(N)c4Cl)c(N)n3)CC1)[C@@H]2N [Example 16] . Value?
75

Recorded inhibition at 0.1 µM of CC(=O)N1CC(F)(F)c2c(Sc3ncc(N4CCC5(CC4)Cc4ccccc4[C@H]5N)nc3N)cccc21 [Example 78] , please.
67

Name the reported inhibition at 0.1 µM value associated with the molecule NC(=O)Nc1ccc2c(c1)[C@@H](N)C1(CCN(c3cnc(Sc4ccnc(N)c4Cl)c(N)n3)CC1)C2 [Example 46]
69

// inhibition at 0.1 µM lookup, key: COc1cc2c(cn1)[C@@H](N)C1(CCN(c3cnc(Sc4ccnc(N)c4Cl)c(N)n3)CC1)C2 [Example 20]
86

====

Target: SHP2 (Homo sapiens, UniProt Q06124)
Sequence (Q06124 1-593): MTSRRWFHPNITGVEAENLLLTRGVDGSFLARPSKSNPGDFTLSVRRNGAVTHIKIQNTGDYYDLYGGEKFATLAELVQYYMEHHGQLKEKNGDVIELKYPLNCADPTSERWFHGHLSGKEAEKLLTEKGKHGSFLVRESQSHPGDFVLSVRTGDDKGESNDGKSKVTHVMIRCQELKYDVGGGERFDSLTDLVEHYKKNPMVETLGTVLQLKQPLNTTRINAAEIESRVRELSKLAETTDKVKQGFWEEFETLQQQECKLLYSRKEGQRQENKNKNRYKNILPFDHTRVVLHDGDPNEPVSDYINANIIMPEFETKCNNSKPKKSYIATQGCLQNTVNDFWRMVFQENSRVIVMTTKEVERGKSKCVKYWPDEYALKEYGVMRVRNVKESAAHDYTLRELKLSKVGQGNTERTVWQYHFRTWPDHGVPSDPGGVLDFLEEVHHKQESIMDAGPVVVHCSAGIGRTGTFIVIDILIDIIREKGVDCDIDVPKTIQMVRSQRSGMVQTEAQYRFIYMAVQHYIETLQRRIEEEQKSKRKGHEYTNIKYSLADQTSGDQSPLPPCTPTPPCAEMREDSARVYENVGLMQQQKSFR
Test: biochemical
Details: read-out: SHP2 inhibition (%)@0.1 μM
Hi, to clarify the labels: Y covers inhibition at 0.1 µM from 80% upward, N covers anything below 80%.

Reference set, count: 3
molecule_smiles=COc1nccc(Sc2ncc(N3CCC4(CC3)Cc3ncccc3[C@H]4N)nc2N)c1Cl class=Y
molecule_smiles=Nc1nc(N2CCC3(CC2)[C@H](N)c2ccccc2[C@H]3N)cnc1Sc1ccnc(N)c1Cl class=N
molecule_smiles=Nc1nc(N2CCC3(CC2)Cc2ncccc2[C@H]3N)cnc1Sc1ccnc(N)c1F class=Y

Would you say N[C@@H]1c2cccnc2CC12CCN(c1cnc(Sc3c(Cl)cncc3Cl)cn1)CC2 shows inhibition at 0.1 µM at minimum 80%?
N

Has N[C@@H]1c2cccnc2CC12CCN(c1cnc(Sc3cc(F)ncc3Cl)cn1)CC2 a recorded inhibition at 0.1 µM greater than or equal to 80%?
Y

Does inhibition at 0.1 µM meet or surpass 80% for Nc1nc(N2CCC3(CC2)Cc2ncccc2[C@H]3N)cnc1Sc1cc(Cl)ncc1C(F)(F)F ?
Y

Is reported inhibition at 0.1 µM greater than or equal to 80% here: N[C@@H]1c2cccnc2CC12CCN(c1cnc(Sc3ccnc(F)c3Cl)cn1)CC2
Y

Record Nc1nc(N2CCC3(CC2)c2cccnc2C[C@H]3N)cnc1Sc1ccnc(N)c1Cl ; criterion: inhibition at 0.1 µM no lower than 80%. Met?
N

====

biological target: UniProt Q06124; assay: Phosphatase assays (IC50), DiFMUP substrate
recorded endpoint: IC50
Report field: quantity (unit follows the number).

Past entries and their recorded results:
molecule_smiles=N=C1c2cscc2CC12CCN(c1cnc(Sc3ccnc(N)c3Cl)c(N)n1)CC2 recorded_endpoint=IC50 recorded_result="12 nM"
molecule_smiles=Nc1nccc(Sc2cnc(N3CCC4(CC3)Cc3scnc3[C@H]4N)cn2)c1Cl recorded_endpoint=IC50 recorded_result="3 nM"

Could you now consider this next molecule?
Please give the measured IC50 for this molecule: Nc1nc(N2CCC3(CC2)Cc2sc(Cl)nc2[C@H]3N)cnc1Sc1ccnc(N)c1Cl
4 nM

====

Target: SHP2 (Homo sapiens, UniProt Q06124)
Sequence (Q06124 1-593): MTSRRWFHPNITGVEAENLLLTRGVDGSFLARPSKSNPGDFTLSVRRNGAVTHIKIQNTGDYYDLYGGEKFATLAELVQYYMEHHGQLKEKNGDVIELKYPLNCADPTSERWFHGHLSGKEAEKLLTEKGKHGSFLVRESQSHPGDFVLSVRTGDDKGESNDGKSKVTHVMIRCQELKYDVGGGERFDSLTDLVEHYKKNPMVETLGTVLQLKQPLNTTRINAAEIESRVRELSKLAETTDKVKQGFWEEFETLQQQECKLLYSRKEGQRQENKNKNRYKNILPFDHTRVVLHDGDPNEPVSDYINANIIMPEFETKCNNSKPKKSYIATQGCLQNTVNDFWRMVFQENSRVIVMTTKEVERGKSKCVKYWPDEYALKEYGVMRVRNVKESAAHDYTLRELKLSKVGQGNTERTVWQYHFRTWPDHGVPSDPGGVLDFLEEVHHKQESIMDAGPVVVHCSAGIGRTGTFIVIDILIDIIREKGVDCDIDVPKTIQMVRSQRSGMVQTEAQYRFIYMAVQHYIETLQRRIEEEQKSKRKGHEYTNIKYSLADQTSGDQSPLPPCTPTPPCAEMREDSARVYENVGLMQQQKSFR
Experiment: biochemical
Settings: read-out: SHP2 inhibition (%)@0.1 μM
Documented inhibition at 0.1 µM across a set of molecules
Please respond with the number in % and leave the unit unwritten.

# annotated cases, reported inhibition at 0.1 µM shown
molecule=Nc1nc(N2CCC3(CC2)Cc2ccc(N4CCOCC4)cc2[C@H]3N)cnc1Sc1ccnc(N)c1Cl recorded_result=70
molecule=Nc1nc(N2CCC3(CC2)Cc2ccc(O)cc2[C@H]3N)cnc1Sc1ccnc(N)c1Cl recorded_result=89
molecule=Nc1ccc2c(c1)[C@@H](N)C1(CCN(c3cnc(Sc4ccnc(N)c4Cl)c(N)n3)CC1)C2 recorded_result=81
molecule=Nc1nc(N2CCC3(CC2)Cc2ccccc2[C@H]3N)cnc1Sc1ccnc(N)c1Cl recorded_result=75
molecule=Nc1nc(N2CCC3(CC2)Cc2sc(Cl)nc2[C@H]3N)cnc1Sc1ccnc(N)c1Cl recorded_result=88

Requested read-out inhibition at 0.1 µM, target or system SHP2 (Homo sapiens, UniProt Q06124), entry N[C@@H]1c2cccnc2CC12CCN(c1cnc(Sc3ccnc(Cl)c3Cl)cn1)CC2
87

Entry Nc1nc(N2CCC3(CC2)Cc2ncc(Cl)cc2[C@H]3N)cnc1Sc1ccnc(N)c1Cl , system SHP2 (Homo sapiens, UniProt Q06124): what inhibition at 0.1 µM was measured?
80

Find the measured inhibition at 0.1 µM: item Nc1nc(N2CCC3(CC2)Cc2ccccc2C3N)cnc1Sc1ccnc(N)c1Cl (stereo not shown) , target or system SHP2 (Homo sapiens, UniProt Q06124).
84

Recall the recorded inhibition at 0.1 µM for CC(=O)N1CC(F)(F)c2c(Sc3ncc(N4CCC5(CC4)c4ccccc4C[C@H]5N)nc3N)cccc21 with SHP2 (Homo sapiens, UniProt Q06124) and state it.
66

Query inhibition at 0.1 µM on SHP2 (Homo sapiens, UniProt Q06124) for CC(=O)N1CC(F)(F)c2c(Sc3ncc(N4CCC5(CC4)Cc4ncccc4[C@H]5N)nc3N)cccc21
76
